# System: LNCaP
# assay.explanation: SRB colorimetric assay of cell growth and viability, LNCaP
# Format: cell-based, human
# conditions.used: 48 hours exposure; read-out: LC50 LN-caP
Where a SMILES comes first, the peptide text is derived from it. Bridges are numbered along the chain shown (N, C = ends). [ ]: non-standard residue; d: D form. The star is where a group is joined. d(aIle) = CC[C@H](C)[C@@H](N)C(=O)O; d(aThr) = C[C@@H](O)[C@@H](N)C(=O)O; Myristoyl = CCCCCCCCCCCCCC(=O)*; Orn = NCCC[C@H](N)C(=O)O; Dhb = C/C=C(\N)C(=O)O
readout.name: CC50

compound	readout.name	result
C/C=C1\NC(=O)[C@H](Cc2ccccc2)NC(=O)[C@@H](C(C)C)NC(=O)[C@@H]([C@@H](C)CC)NC(=O)[C@H](NC(=O)[C@H](NC(=O)[C@H](CCCN)NC(=O)[C@H]2CCCN2C(=O)[C@H](NC(=O)[C@@H](NC(=O)[C@@H](NC(=O)[C@H](NC(=O)CCCCCCCCCCCCCCCCCCC)C(C)C)[C@@H](C)O)C(C)C)C(C)C)[C@@H](C)CC)[C@@H](C)OC(=O)[C@H](C(C)C)NC1=O [Compound 13, [Icos^14]-KF]	CC50	4.73 µM
C/C=C1\NC(=O)[C@H](Cc2ccccc2)NC(=O)[C@@H](C(C)C)NC(=O)[C@@H]([C@@H](C)CC)NC(=O)[C@H](NC(=O)[C@H](NC(=O)[C@H](CCCN)NC(=O)[C@H]2CCCN2C(=O)[C@H](NC(=O)CCCCCCCCCCCCC)C(C)C)[C@@H](C)CC)[C@@H](C)OC(=O)[C@H](C(C)C)NC1=O [Compound 32] (Myristoyl-[dV][dP][Orn][d(aIle)][d(aThr)][d(aIle)][dV]F[Dhb]V; ester 5-C)	CC50	6.67 µM
